Below, each entry is listed alongside its reported GI50.
- Tested on: Ba/F3 cells expressing L858R/T790M/C797S (EGFR-LTC)
- Assay name: Growth inhibition (GI50) of Ba/F3 cells expressing L858R/T790M/C797S (EGFR-LTC), Celltiter glo
- Type: cell-based
- Reported conditions: Mus musculus, BaF3, 72 h

{"Molecule": "COc1ccc(NS(C)(=O)=O)c(Nc2nc(Nc3cc(C)c(N4CCC(N5CCC(C(F)(F)F)CC5)CC4)cc3OC)ncc2Cl)c1 [Example 234]", "GI50": "100 to 500 nM"}
{"Molecule": "CC(=O)Nc1ccccc1Nc1nc(Nc2ccc(N3CCC(N4CCN(C)CC4)CC3)c(F)c2)ncc1Cl [Example 69]", "GI50": "1 to 25 nM"}
{"Molecule": "COc1cc(N2CCC(N3CCNCC3)CC2)c(C)cc1Nc1ncc(Br)c(Nc2cc3c(cc2NS(C)(=O)=O)CCO3)n1 [Example 215]", "GI50": "25 to 100 nM"}
{"Molecule": "COc1nc(N2CCN(CCO)CC2)ccc1Nc1ncc(Cl)c(Nc2ccc(F)cc2NS(C)(=O)=O)n1 [Example 18]", "GI50": "500 to 2000 nM"}
{"Molecule": "COc1ccc(NS(C)(=O)=O)c(Nc2nc(Nc3cc(C)c(N4CCC(N5CCN(C6CC6)CC5)CC4)cc3OC)ncc2Cl)c1 [Example 233]", "GI50": "25 to 100 nM"}

Task: Field request: GI50 | item: COc1cc(N2CCC(N3CCC(N(C)C)C3)CC2)c(C)cc1Nc1ncc(Br)c(Nc2cc(Cl)ccc2NS(C)(=O)=O)n1 (centres unmarked) [Example 91]
Result: 25 to 100 nM

Task: Consider the molecule COc1ccc(NS(C)(=O)=O)c(Nc2nc(Nc3ccc(N4CCC(N5CCN(C)CC5)CC4)cc3OC)ncc2Cl)c1 [Example 231] and give its measured GI50.
Result: 100 to 500 nM

Task: Looking for the measured GI50 of CC(=O)Nc1cc(Cl)c(Cl)cc1Nc1nc(Nc2ccc(N3CCC(N4CCN(C)CC4)CC3)cc2Cl)ncc1Cl [Example 77] , can you help?
Result: 500 to 2000 nM

Task: Quick one: GI50 for COc1cc(N2CCC(N3CCCN(C)CC3)CC2)c(Cl)cc1Nc1ncc(Br)c(Nc2cc3c(cc2NS(C)(=O)=O)CCO3)n1 [Example 189] ?
Result: 1 to 25 nM

Task: // lookup GI50 for COc1nc(N2CCC(N(C)C)C2)ccc1NC1=[N+]=C(N(c2ccccc2NS(C)(=O)=O)S(C)(=O)=O)C(Cl)=CN1 (centres unmarked) [Example 8]
Result: 500 to 2000 nM

Task: Fill in: GI50 of COc1cc(N2CCC(N3CCCN(C)CC3)CC2)c(C)cc1Nc1ncc(Cl)c(Nc2cc3c(cc2NS(C)(=O)=O)CCO3)n1 [Example 165] is ___
Result: 25 to 100 nM

Task: Please look up its GI50: COc1cc(N2CCC(N3CCN(C)CC3)CC2)c(C)cc1Nc1ncc(Br)c(Nc2ccccc2N=S(C)(C)=O)n1 [Example 142]
Result: 25 to 100 nM

Task: Value lookup for GI50; key = COc1cc(N2CCC(N3CCC(N(C)C)C3)CC2)c(C)cc1Nc1ncc(Br)c(Nc2ccc(F)cc2NS(C)(=O)=O)n1 (centres unmarked) [Example 40]
Result: 100 to 500 nM

Task: Item CC(=O)Nc1cc(Cl)c(Cl)cc1Nc1nc(Nc2ccc(N3CCC(N4CCN(C)CC4)CC3)c(F)c2)ncc1Cl [Example 76] has what recorded GI50?
Result: 100 to 500 nM
